Target: ΔF508-CFTR (Homo sapiens, UniProt P13569, DEL508-508)
Construct: Fisher rat epithelial (FRT) cells for Ussing chamber follow-up
Sequence (P13569 with tags, fused parts or gaps DEL508-508): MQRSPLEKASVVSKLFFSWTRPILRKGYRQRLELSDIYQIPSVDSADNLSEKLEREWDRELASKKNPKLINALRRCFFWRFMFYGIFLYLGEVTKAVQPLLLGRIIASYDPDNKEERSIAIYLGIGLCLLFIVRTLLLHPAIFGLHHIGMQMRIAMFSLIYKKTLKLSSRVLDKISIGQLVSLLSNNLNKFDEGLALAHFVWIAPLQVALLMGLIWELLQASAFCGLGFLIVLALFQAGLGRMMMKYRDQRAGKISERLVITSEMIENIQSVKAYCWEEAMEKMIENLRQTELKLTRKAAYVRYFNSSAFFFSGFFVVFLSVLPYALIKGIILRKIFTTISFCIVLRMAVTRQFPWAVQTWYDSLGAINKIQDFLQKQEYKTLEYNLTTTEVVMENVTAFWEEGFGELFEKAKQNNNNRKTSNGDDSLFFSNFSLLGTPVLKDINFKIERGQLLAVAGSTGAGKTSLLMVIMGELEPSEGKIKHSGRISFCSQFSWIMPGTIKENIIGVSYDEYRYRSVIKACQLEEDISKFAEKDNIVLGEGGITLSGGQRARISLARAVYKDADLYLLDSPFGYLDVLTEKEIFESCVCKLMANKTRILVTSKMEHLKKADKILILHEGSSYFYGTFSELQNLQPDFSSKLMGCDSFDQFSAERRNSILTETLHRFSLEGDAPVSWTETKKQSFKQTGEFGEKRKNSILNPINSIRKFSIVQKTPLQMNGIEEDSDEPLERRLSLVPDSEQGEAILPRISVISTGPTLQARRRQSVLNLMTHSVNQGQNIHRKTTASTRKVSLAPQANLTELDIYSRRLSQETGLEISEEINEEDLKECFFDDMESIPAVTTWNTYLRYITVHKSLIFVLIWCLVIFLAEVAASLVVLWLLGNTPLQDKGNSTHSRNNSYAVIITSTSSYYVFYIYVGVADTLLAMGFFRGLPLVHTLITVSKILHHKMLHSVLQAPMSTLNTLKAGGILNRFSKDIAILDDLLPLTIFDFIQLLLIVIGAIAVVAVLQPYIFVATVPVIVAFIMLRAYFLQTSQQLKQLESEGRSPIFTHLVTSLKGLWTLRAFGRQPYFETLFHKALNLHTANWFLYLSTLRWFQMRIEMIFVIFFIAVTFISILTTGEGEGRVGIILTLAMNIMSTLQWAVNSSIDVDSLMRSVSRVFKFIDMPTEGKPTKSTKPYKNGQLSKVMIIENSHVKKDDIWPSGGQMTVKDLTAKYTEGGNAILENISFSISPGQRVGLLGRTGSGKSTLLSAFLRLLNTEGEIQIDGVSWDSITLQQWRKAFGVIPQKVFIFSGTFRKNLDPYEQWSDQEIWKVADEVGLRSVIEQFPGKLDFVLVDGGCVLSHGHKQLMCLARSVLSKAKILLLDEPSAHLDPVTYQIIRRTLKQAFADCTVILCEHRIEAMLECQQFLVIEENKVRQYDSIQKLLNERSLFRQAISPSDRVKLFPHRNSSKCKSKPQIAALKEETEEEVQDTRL
Assay: Assays for ΔF508-CFTR correction and potentiator properties (membrane potential optical and electrophysiological methods)
Conditions: CFTR modulation, tested using the above methods
measured-quantity: EC50

compound: Cc1ccc(C(=O)Nc2nc(-c3ccccc3)cs2)cc1
observed-measurement: 10 to 25 µM
//
compound: CCC(C(=O)Nc1nc2ccc(OC)cc2s1)c1ccccc1 (stereo not shown)
observed-measurement: < 10 µM
//
compound: COc1ccccc1Cc1cnc(NC(=O)C2c3ccccc3Oc3ccccc32)s1
observed-measurement: < 10 µM
//
compound: O=C(Nc1ncc(Cc2ccc(Cl)cc2)o1)C(c1ccccc1)C1CCCC1 (stereo not shown)
observed-measurement: < 10 µM
//
compound: O=C(Nc1nc(-c2ccc(N3CCCC3)cc2)cs1)c1ccccc1
observed-measurement: 10 to 25 µM

Fill in EC50 for record CCCCc1ccc(C(=O)Nc2nc3ccccc3s2)cc1
< 10 µM

Item O=C(Nc1ncc(Cc2cccc(Cl)c2)s1)C1Cc2ccccc21 (stereo not shown) : provide EC50
25 to 60 µM

Report EC50 for CC(C)C(=O)Nc1nc(-c2ccccc2)c(-c2ccccc2)s1
< 10 µM

Tell me EC50 reported for COc1cccc(-c2csc(NC(=O)c3cccc(Cl)c3)n2)c1
10 to 25 µM

Return the recorded EC50 value; entry: O=C(Nc1ncc(Cc2ccccc2Cl)s1)C(NC1CCCC1)c1ccccc1 (stereo not shown)
< 10 µM

Read off the recorded EC50 for CCC(Oc1ccccc1)C(=O)Nc1ncc(Cc2ccccc2Cl)s1 (stereo not shown)
10 to 25 µM

Give the reported EC50 for this compound. O=C(Nc1ncc(Cc2ccccc2Cl)s1)C1CCCCC1
< 10 µM

Identify measured EC50 corresponding to COc1ccccc1Cc1cnc(NC(=O)C(c2ccc(Cl)cc2)c2ccc(Cl)cc2)s1
< 10 µM

For the compound O=C(Nc1ncc(Cc2ccccc2Cl)s1)C(c1ccccc1)N1CCOCC1 (stereo not shown) , give its reported EC50.
10 to 25 µM

Using the record for CCC(C(=O)Nc1ncc(Cc2ccccc2Cl)s1)c1cccnc1 (stereo not shown) , state its measured EC50.
< 10 µM

Recall and state the measured EC50 for CCC(C)C(C(=O)Nc1ncc(Cc2ccccc2Cl)o1)c1ccccc1 (stereo not shown) .
< 10 µM

Complete the entry with EC50 for CCC(C)C(C(=O)Nc1ncc(Cc2ccccc2)o1)c1ccccc1 (stereo not shown)
10 to 25 µM

Name the recorded EC50 of the compound listed here: Cc1ccc(-c2csc(NC(=O)c3ccccc3)n2)c(C)c1
< 10 µM

Input COC(=O)c1ccccc1C(=O)Nc1nc(-c2ccccc2)c(-c2ccccc2)s1 , output reported EC50.
< 10 µM

----------
Biological target: ΔF508-CFTR (Homo sapiens, UniProt P13569, DEL508-508)
Construct: expressed in transfected cells; host or cells: NIH3T3 mouse fibroblasts stably expressing ΔF508-CFTR for the optical, whole-cell and single-channel assays; Fisher rat epithelial (FRT) cells for Ussing chamber follow-up
Assay: Assays for ΔF508-CFTR correction and potentiator properties (membrane potential optical and electrophysiological methods)
Type: cell-based
Details: CFTR modulation, % Efficacy

compound: Cc1ccc(C(=O)Nc2nc(-c3ccc(C)cc3)c(-c3ccccc3)s2)cc1
study-system: ΔF508-CFTR (Homo sapiens, UniProt P13569, DEL508-508)
% Activity: +++ (“+++” means >100%)
//
compound: O=C(Nc1ncc(Cc2ccc(Cl)cc2)s1)C(c1ccccc1)C1CCCCC1 (stereo not drawn)
study-system: ΔF508-CFTR (Homo sapiens, UniProt P13569, DEL508-508)
% Activity: +++ (“+++” means >100%)
//
compound: CCCCc1ccc(C(=O)Nc2nc3ccccc3s2)cc1
study-system: ΔF508-CFTR (Homo sapiens, UniProt P13569, DEL508-508)
% Activity: +++ (“+++” means >100%)
